B1: library; numbered along this chain (parent)
chain: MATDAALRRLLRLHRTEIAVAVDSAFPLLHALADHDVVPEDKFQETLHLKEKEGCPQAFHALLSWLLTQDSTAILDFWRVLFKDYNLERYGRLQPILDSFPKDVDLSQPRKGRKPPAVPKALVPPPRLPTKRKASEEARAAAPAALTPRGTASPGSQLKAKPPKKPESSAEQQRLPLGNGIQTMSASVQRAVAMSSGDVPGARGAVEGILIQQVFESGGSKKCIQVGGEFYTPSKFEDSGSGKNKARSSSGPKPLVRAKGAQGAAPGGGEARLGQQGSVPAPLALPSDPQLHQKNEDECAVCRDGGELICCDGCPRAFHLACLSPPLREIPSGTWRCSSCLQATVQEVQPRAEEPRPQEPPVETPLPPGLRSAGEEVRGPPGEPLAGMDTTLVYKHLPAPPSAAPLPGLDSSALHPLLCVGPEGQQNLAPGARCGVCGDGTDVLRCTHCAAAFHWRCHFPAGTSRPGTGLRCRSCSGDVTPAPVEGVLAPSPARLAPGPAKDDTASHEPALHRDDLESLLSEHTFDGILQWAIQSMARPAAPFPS

- Variants of: B1
- Protocol Summary: AIRE transcriptional activation functional score (insulin promoter-GFP; nonsense median 0, synonymous median 1) (normalised score); higher = higher AIRE activity (more reporter activation)
- Measurement Setup: with insulin promoter-GFP reporter in HEK293
Attribute: AIRE transcriptional activation functional score
// keep it numeric: no unit symbol after the value

Field: example entries. Status: answers known.
In [3]: df
Out[3]:
   mutation_label  observed_measurement
0           P398A                  1.09
1           C472D                -0.251
2           G424V                  1.25

Entry E216R — recorded AIRE transcriptional activation functional score = -0.537

Entry R445T — recorded AIRE transcriptional activation functional score = 0.578

Entry G260I — recorded AIRE transcriptional activation functional score = 1.39

Entry R12S — recorded AIRE transcriptional activation functional score = -0.0905

Entry Q290V — recorded AIRE transcriptional activation functional score = 1.04

Entry R513G — recorded AIRE transcriptional activation functional score = -0.188

Entry L158M — recorded AIRE transcriptional activation functional score = 0.957
